Test system: M14
Assay: NCI tumour cell line growth inhibition, 48 h
Calls of active or inactive are those of the source. No stated cut-off is given here; in the data, active = GI50 up to about 1.1 µM and inactive = higher.
Tick one outcome: true for active, false for inactive

Worked cases, answers included:
compound=Cc1c(N2CCOCC2)nc2ccc(Cl)cc2c1-c1ccccc1 group=false
compound=C/C(=N\N=C(\N)S)c1ccc(Oc2ccccc2)cc1 group=false
compound=COC(=O)Nc1nc2cc(NC(=O)c3ccc(I)cc3)ccc2[nH]1 group=false
compound="Cc1ccc(/C=C2/N/C(=N\\N=C/C(O)C(O)C(O)CO)NC2=O)cc1 (centres undefined)" group=false
compound="Cc1cn(C2CC(CCCO)C(CO)O2)c(=O)[nH]c1=O (centres undefined)" group=false

Enquiry: Dear colleague, could you share the recorded outcome for CNC(=O)CC1NC(=O)c2csc(n2)-c2ccc(-c3nc(C4=NC(C(=O)N5CCCC5C(N)=O)CO4)cs3)nc2-c2csc(n2)-c2csc(n2)C(C(C)C)NC(=O)CNC(=O)c2csc(n2)C(C(C)C)NC(=O)c2nc1sc2C (centres undefined) when you have a moment?
Return: true

Enquiry: Dear colleague, could you share the recorded outcome for CC1=C(N(C)C)C(=O)c2nc3n(c2C1=O)CCC3OC(N)=O (centres undefined) when you have a moment?
Return: false

Enquiry: Dear colleague, could you share the recorded outcome for O=C1c2cccc3cc([N+](=O)[O-])cc(c23)C(=O)N1CCCN1CCN(CCCN2C(=O)c3cccc4cc([N+](=O)[O-])cc(c34)C2=O)CC1 when you have a moment?
Return: true

Enquiry: Dear colleague, could you share the recorded outcome for COc1cc(C2c3cc4c(cc3[C@@H](NCCN3CCCCC3)C3COC(=O)[C@H]23)OCO4)cc(OC)c1O (some centres undefined) when you have a moment?
Return: true
